# Measurement Target: MCH receptor (Homo sapiens)
# Construct: expressed in transfected cells; host or cells: CHO cells
# Assay Remarks: MCH Receptor Binding Assay ([125I]-MCH, SPA, membranes from CHO cells expressing the MCH receptor)
# Test Context: CHO cell membranes, read-out: Ki value
Quantity Kind: Ki (nM)

>>> number("N#Cc1cccc(-c2ccc3c(c2)CCN(CC(=O)Nc2cc(Cl)cc(Cl)c2)C32CCN(C3CCCCCC3)CC2)c1 [Compound 11a]")
11

====

# Measurement Target: MCH receptor (Homo sapiens)
# Construct: expressed in transfected cells; host or cells: CHO cells
# Assay Remarks: MCH Receptor Binding Assay ([125I]-MCH, SPA, membranes from CHO cells expressing the MCH receptor)
# Test Context: CHO cell membranes, read-out: Activity (Ki class)
Quantity Kind: Ki

>>> result("CC(C)N1CCC2(CC1)c1ccc(-c3cccc(C#N)c3)cc1CCN2CC(=O)Nc1ccc(Cl)c(Cl)c1")
"> 100 nM"
>>> result("N#Cc1cccc(-c2ccc3c(c2)CCN(CC(=O)Nc2cc(Cl)cc(Cl)c2)C32CCN(C3CCC3)CC2)c1 [Compound 11b]")
"< 30 nM"
>>> result("CC(C)(C)OC(=O)N1CCC2(CC1)c1ccc(-c3cccc(C#N)c3)cc1CCN2CC(=O)Nc1cc(Cl)cc(Cl)c1 [Compound 30a]")
"> 100 nM"
>>> result("CC(C)N1CCC2(CC1)c1ccc(-c3cccc(C#N)c3)cc1CCN2Cc1nc2ccccc2[nH]1 [Compound 12a]")
"> 100 nM"
>>> result("N#Cc1cccc(-c2ccc3c(c2)CCN(CC(=O)Nc2cc(Cl)cc(Cl)c2)C32CCN(C3CCSC3)CC2)c1 (stereo not shown) [Compound 11j]")
"30 to 100 nM"
>>> result("CN1CCC2(CC1)c1ccc(-c3cccc(C#N)c3)cc1CCN2CC(=O)Nc1cc(Cl)cc(Cl)c1 [Compound 11f]")
"30 to 100 nM"
>>> result("N#Cc1cccc(-c2ccc3c(c2)CCN(CC(=O)Nc2ccc(F)c(Cl)c2)C32CCN(CC3CC3)CC2)c1")
"< 30 nM"

====

# Measurement Target: MCH receptor (Homo sapiens, UniProt Q99705)
# Construct: expressed in transfected cells; host or cells: CHO cells
# Sequence (Q99705 whole entry): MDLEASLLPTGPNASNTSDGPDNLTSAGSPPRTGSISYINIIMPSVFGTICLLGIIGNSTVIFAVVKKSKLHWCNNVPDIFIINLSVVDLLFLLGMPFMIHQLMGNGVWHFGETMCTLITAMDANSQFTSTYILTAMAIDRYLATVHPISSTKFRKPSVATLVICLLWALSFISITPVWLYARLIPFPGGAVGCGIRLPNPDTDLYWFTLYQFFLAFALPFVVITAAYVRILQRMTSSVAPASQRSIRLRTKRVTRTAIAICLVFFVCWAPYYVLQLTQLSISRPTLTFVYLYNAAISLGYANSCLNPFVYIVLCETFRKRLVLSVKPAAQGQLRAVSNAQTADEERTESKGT
# Assay Remarks: MCH Receptor Binding Assay ([125I]-MCH, SPA, membranes from CHO cells expressing the MCH receptor)
# Test Context: CHO cell membranes, read-out: Activity (Ki class)
Let's look at some compounds and their measured Ki.
Quantity Kind: Ki

>>> result("N#Cc1cccc(-c2ccc3c(c2)CCN(CC(=O)Nc2ccc(Cl)cc2)C32CCN(CC3CC3)CC2)c1")
"> 100 nM"
>>> result("CC(C)N1CCC2(CC1)c1ccc(-c3cccc(C#N)c3)cc1CCN2CC(=O)Nc1cc(F)cc(F)c1")
"30 to 100 nM"
>>> result("N#Cc1cccc(-c2ccc3c(c2)CCN(CC(=O)Nc2cc(Cl)cc(Cl)c2)C32CCN(Cc3ccoc3)CC2)c1 [Compound 11i]")
"30 to 100 nM"
>>> result("CC(C)N1CCC2(CC1)c1ccc(-c3cccc(C#N)c3)cc1CCN2CC(=O)Nc1ccc(Cl)c(C(F)(F)F)c1")
"> 100 nM"
>>> result("N#Cc1cccc(-c2ccc3c(c2)CCN(CC(=O)Nc2ccc(Cl)c(Cl)c2)C32CCN(CC3CC3)CC2)c1")
"> 100 nM"
>>> result("N#Cc1cccc(-c2ccc3c(c2)CCN(CC(=O)Nc2cc(Cl)cc(Cl)c2)C32CCNCC2)c1 [Compound 10c]")
"30 to 100 nM"
>>> result("CC(=O)N1CCC2(CC1)c1ccc(-c3cccc(C#N)c3)cc1CCN2CC(=O)Nc1cc(Cl)cc(Cl)c1 [Compound 30b]")
"> 100 nM"
>>> result("N#Cc1cccc(-c2ccc3c(c2)CCN(CC(=O)Nc2cc(Cl)cc(Cl)c2)C32CCN(CCO)CC2)c1 [Compound 11e]")
"30 to 100 nM"
>>> result("N#Cc1cccc(-c2ccc3c(c2)CCN(CC(=O)Nc2cc(Cl)cc(Cl)c2)C32CCN(C3CCCCCC3)CC2)c1 [Compound 11a]")
"< 30 nM"
>>> result("N#Cc1cccc(-c2ccc3c(c2)CCN(Cc2nc4cc(F)c(Cl)cc4[nH]2)C32CCNCC2)c1 [Compound 12e]")
"> 100 nM"
>>> result("N#Cc1cccc(-c2ccc3c(c2)CCN(CC(=O)Nc2ccc(Cl)c(C(F)(F)F)c2)C32CCN(CC3CC3)CC2)c1")
"> 100 nM"
>>> result("CCN1CCC2(CC1)c1ccc(-c3cccc(C#N)c3)cc1CCN2CC(=O)Nc1cc(Cl)cc(Cl)c1 [Compound 11g]")
"30 to 100 nM"
>>> result("N#Cc1cccc(-c2ccc3c(c2)CCN(Cc2nc4cc(Cl)c(Cl)cc4[nH]2)C32CCN(CC3CC3)CC2)c1 [Compound 12f]")
"> 100 nM"
>>> result("CS(=O)(=O)N1CCC2(CC1)c1ccc(-c3cccc(C#N)c3)cc1CCN2CC(=O)Nc1cc(Cl)cc(Cl)c1 [Compound 30c]")
"> 100 nM"
>>> result("CC(C)N1CCC2(CC1)c1ccc(-c3cccc(C#N)c3)cc1CCN2CC(=O)Nc1ccc(F)c(Cl)c1")
"30 to 100 nM"
>>> result("N#Cc1cccc(-c2ccc3c(c2)CCN(CC(=O)Nc2cccc(Cl)c2)C32CCN(CC3CC3)CC2)c1")
"30 to 100 nM"
>>> result("N#Cc1cccc(-c2ccc3c(c2)CCN(CC(=O)Nc2cc(Cl)cc(Cl)c2)C32CCN(C3CCCC3)CC2)c1 [Compound 11d]")
"< 30 nM"
>>> result("CC(C)N1CCC2(CC1)c1ccc(-c3cccc(C#N)c3)cc1CCN2CC(=O)Nc1cc(Cl)cc(Cl)c1")
"< 30 nM"
>>> result("N#Cc1cccc(-c2ccc3c(c2)CCN(CC(=O)Nc2ccc(F)c(F)c2)C32CCN(CC3CC3)CC2)c1")
"30 to 100 nM"
>>> result("N#Cc1cccc(-c2ccc3c(c2)CCN(CC(=O)Nc2cc(F)cc(F)c2)C32CCN(CC3CC3)CC2)c1")
"30 to 100 nM"
>>> result("N#Cc1cccc(-c2ccc3c(c2)CCN(CC(=O)Nc2cc(Cl)cc(Cl)c2)C32CCN(CC3CC3)CC2)c1 [Compound 11c]")
"< 30 nM"
>>> result("CN(C)S(=O)(=O)N1CCC2(CC1)c1ccc(-c3cccc(C#N)c3)cc1CCN2CC(=O)Nc1cc(Cl)cc(Cl)c1 [Compound 30d]")
"> 100 nM"
>>> result("N#Cc1cccc(-c2ccc3c(c2)CCN(Cc2nc4cc(Cl)c(Cl)cc4[nH]2)C32CCNCC2)c1 [Compound 12d]")
"> 100 nM"
>>> result("N#Cc1cccc(-c2ccc3c(c2)CCN(CC(=O)Nc2cc(F)cc(C(F)(F)F)c2)C32CCN(CC3CC3)CC2)c1")
"30 to 100 nM"
>>> result("N#Cc1cccc(-c2ccc3c(c2)CCN(CC(=O)Nc2cc(Cl)cc(Cl)c2)C32CCN(C3CCOCC3)CC2)c1 [Compound 11h]")
"< 30 nM"
>>> result("N#Cc1cccc(-c2ccc3c(c2)CCN(CC(=O)Nc2ccc(F)c(C(F)(F)F)c2)C32CCN(CC3CC3)CC2)c1")
"< 30 nM"
